Values compiled from paper PMC11079024.

activity at 0.0001 µM listing for selected compounds.
- STUDY_TARGET: C. elegans (N2) complex I (NADH:ubiquinone oxidoreductase) (Caenorhabditis elegans, UniProt P24887+Q93873+Q94360)
- Sequence (Q94360 17-199): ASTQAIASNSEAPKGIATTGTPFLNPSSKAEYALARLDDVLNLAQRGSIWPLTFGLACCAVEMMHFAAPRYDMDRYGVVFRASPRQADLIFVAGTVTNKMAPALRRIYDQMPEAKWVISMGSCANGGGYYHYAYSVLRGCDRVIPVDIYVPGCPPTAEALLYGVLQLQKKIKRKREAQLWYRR
- Sequence (P24887 whole entry): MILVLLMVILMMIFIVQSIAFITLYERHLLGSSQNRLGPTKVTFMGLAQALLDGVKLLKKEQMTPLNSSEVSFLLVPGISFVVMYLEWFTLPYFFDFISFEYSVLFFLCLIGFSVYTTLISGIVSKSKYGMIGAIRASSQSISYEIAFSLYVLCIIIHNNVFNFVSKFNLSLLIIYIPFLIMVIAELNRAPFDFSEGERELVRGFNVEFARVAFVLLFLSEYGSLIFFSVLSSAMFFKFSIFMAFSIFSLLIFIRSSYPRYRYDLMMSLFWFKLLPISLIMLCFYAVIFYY
- Sequence (Q93873 31-482): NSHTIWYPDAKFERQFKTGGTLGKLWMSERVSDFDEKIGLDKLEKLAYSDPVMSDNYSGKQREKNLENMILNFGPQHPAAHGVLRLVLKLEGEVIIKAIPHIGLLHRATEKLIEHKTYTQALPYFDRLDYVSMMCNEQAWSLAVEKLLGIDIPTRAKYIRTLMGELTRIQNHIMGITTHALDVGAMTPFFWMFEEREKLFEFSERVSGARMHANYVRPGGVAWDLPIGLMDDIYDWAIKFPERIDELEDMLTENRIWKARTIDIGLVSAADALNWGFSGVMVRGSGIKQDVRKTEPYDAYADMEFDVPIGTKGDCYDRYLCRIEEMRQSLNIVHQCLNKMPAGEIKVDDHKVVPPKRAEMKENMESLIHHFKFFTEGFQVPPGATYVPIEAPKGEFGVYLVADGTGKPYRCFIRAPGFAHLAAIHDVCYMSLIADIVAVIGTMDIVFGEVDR
- MEASUREMENT_NOTES: biochemical
- Format: biochemical
- ASSAY_SETUP: Dose 0.0001 µM; read-out: C. elegans mitochondrial complex I activity
// return numeric value only (unit: %, not printed)

* CCCn1c(COc2ccc(C)cc2)nc2ccccc21 [Compound 6944471] | 95.2
* Cc1ccccc1OCCCCn1cnc2ccccc21 [Compound 7732524] | 130
* Clc1ccc(OCCn2cnc3ccccc32)c(Cl)c1 [Compound 7221649] | 92.4

Request: I would be grateful if you could share the reported activity at 0.0001 µM for Cc1nc2ccccc2n1CCOc1ccccc1Cl [Compound 5561642] .
Result: 91.5

Request: For the compound Cc1cccc(OCCn2c(C)nc3ccccc32)c1 [Compound 6285199] , what activity at 0.0001 µM is on record?
Result: 94.3

###

- STUDY_TARGET: B. taurus (heart) complex I (Bos taurus, UniProt P03887+P17694+P42026)
- Sequence (P03887 whole entry): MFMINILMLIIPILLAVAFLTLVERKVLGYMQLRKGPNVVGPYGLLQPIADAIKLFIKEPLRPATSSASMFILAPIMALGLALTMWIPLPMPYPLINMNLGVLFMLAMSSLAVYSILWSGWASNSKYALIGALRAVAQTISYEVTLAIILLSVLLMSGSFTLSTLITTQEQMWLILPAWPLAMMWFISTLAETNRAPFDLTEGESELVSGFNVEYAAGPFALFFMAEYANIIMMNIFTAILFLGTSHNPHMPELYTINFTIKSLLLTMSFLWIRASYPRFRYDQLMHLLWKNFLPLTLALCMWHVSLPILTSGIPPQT
- Sequence (P17694 34-463): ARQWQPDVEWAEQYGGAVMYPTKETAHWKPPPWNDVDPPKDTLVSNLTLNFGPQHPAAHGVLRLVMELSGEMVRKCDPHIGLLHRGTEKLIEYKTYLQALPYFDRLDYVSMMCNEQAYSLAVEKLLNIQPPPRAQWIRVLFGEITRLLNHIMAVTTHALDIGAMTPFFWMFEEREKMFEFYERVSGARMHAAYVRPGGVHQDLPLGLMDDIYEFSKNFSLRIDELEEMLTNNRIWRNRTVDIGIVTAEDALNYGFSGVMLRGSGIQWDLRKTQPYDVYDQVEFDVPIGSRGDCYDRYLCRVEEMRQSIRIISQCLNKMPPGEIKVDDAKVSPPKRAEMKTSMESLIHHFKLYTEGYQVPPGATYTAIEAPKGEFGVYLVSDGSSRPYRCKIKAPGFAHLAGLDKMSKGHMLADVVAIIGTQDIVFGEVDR
- Sequence (P42026 38-216): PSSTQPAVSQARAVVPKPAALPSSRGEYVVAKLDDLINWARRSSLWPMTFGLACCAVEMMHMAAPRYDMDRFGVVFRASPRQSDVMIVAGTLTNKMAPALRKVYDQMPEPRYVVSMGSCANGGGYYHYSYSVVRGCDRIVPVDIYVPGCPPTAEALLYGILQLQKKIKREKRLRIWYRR
- MEASUREMENT_NOTES: biochemical
- Type: biochemical
- ASSAY_SETUP: B. taurus; dose 0.0001 µM; Mean of replicates; read-out: Complex I activity, dose-response data
METRIC: activity at 0.0001 µM (%)
Report only the number, with the unit % understood.

* COc1cc2c(cc1OC)C(/C=C/c1ccc(N(C)C)cc1)=NCC2 | 91.7
* COc1cc2c(cc1OC)C(c1ccc(-c3ccc(Cl)c(Cl)c3)o1)=NCC2 | 105
* COc1cc2c(cc1OC)C(C(C)c1ccc(CC(C)C)cc1)=NCC2 (stereo not shown) | 107

Request: Name the recorded activity at 0.0001 µM for CC(C)Cc1ccc(C(C)c2nc3ccccc3n2C)cc1 (stereo not shown) .
Result: 104

###

- STUDY_TARGET: C. elegans (N2) complex I (NADH:ubiquinone oxidoreductase) (Caenorhabditis elegans, UniProt P24887+Q93873+Q94360)
- MEASUREMENT_NOTES: biochemical
- Type: biochemical
- ASSAY_SETUP: 15 µM; wild-type C. elegans mitochondria; single replicate; read-out: percent (%) in vitro complex I activity relative to solvent control
METRIC: remaining activity at 15 µM (%)
Just the number please, in %, no unit attached.

Example entries and their recorded answers appear below.
* COc1cc2c(cc1OC)C(C(C)c1ccc(CC(C)C)cc1)=NCC2 (stereo not shown) [NPD10504] | 12.3
* COC(=O)Nc1nc2ccc(C(=O)c3ccccc3)cc2[nH]1 [mebendazole, reference compound] | 102
* COc1cc2c(cc1OC)C(c1ccc(-c3ccc(Cl)c(Cl)c3)o1)=NCC2 [NPD3577] | 62.5

Now let's try a different one.
Request: Returns the measured remaining activity at 15 µM for the input compound. Input: COC(=O)Nc1nc2ccc(Sc3ccccc3)cc2[nH]1 [fenbendazole, reference compound]
Result: 104

###

- STUDY_TARGET: B. taurus (heart) complex I (Bos taurus, UniProt P03887+P17694+P42026)
- MEASUREMENT_NOTES: biochemical
- Format: biochemical
- ASSAY_SETUP: B. taurus heart mitochondria; estimated from fitted dose-response curves; read-out: B. taurus Complex I IC50
METRIC: log10(IC50) (log10 of the value in µM)
A difference of one corresponds to tenfold IC50; all values are log10 with IC50 in µM.

- Brc1ccc(Cn2cnc3ccccc32)cc1: 0.53

Request: # input compound: `Cc1nc2ccccc2n1Cc1ccc(F)cc1` ; wanted: its log10(IC50)
Result: 0.66

Request: Which log10(IC50) reading was recorded for the compound `CCCOc1ccc(Cn2cnc3ccccc32)cc1` ?
Result: 0.49

Request: What value of log10(IC50) has been recorded for this entry: `Clc1ccc(Cn2cnc3ccccc32)c(Cl)c1`
Result: 0.41
